- protocol-summary: MM1S myeloma cell viability, profiling panel, resazurin fluorescence, basal, 24 h, PK04 Diversity Set (AID 1174);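 also: MM1S multiple myeloma cell line; test concentration not given here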
- measurement-context: higher = more signal, called active from +8 up or from −8 down
Measured z-score, listed per entry for reference.
measure: z-score

INSERT INTO assay_data (compound, measure, endpoint_result) VALUES
  ('O=C1O[C@H](c2ccccc2)[C@H](c2ccccc2)N2[C@H]1[C@@H](C(=O)N1CCN(c3ncccn3)CC1)[C@]1(C(=O)Nc3ccc(C#CC4(O)CCCCCC4)cc31)[C@H]2c1ccc(O)cc1', 'z-score', 0.776),
  ('C=C(CCCC)/C(=C/C[C@@H](OC(C)=O)c1ccc(OCCO)cc1)c1cc(C(=O)OC)ccc1OC', 'z-score', -1.36),
  ('COc1ccc(C(O)C2C=CC3C(=O)N(C)C(=O)C3N2Nc2ccccc2)cc1 (centres undefined)', 'z-score', -0.956),
  ('CN1C2C=C(c3ccc(CO)cc3)C(C3C(=O)N(C(N)=O)C(=O)C32)C1C1CC1 (centres undefined)', 'z-score', -0.611),
  ('COC(=O)c1c2oc(c1C(=O)OC)C(=O)N[C@H](Cc1ccccc1)Cn1cc(nn1)C1(CCCCC1)NC(=O)N[C@H](CO)CC2', 'z-score', 0.247),
  ('CN(C)CCCC[C@@H]1NC(=O)[C@H]2C[C@@H](C(=O)NCCCCCCNC(=O)CS)[C@@H](c3cccc(OCCO)c3)N2C1=O', 'z-score', -0.956),
  ('COCCOC(=O)N1C(=O)[C@@]2(c3cc(C#CCNC(N)=O)ccc31)[C@H](C(=O)N1CCN(c3ncccn3)CC1)[C@H]1C(=O)O[C@H](c3ccccc3)[C@H](c3ccccc3)N1[C@@H]2c1ccc(O)cc1', 'z-score', 0.0034),
  ('COC(=O)[C@@]1(Cc2ccc(F)cc2)[C@H]2c3cc(C(=O)N4CCCC4)n(Cc4ccc(C(F)(F)F)nc4)c3C[C@H]2CN1C(=O)c1ccccc1', 'z-score', -1.23),
  ('COC(=O)[C@@]1(Cc2ccc(F)cc2)[C@H]2c3cc(C(=O)N(C)C)n(CCF)c3C[C@H]2CN1C(=O)c1ccccc1', 'z-score', -0.182),
  ('CCOC(=O)C[C@H]1[C@H](OC(=O)c2cc3ccccc3oc2=O)[C@@H](NC(=O)Cc2ccc(OC)cc2)c2cc(OCCCO)ccc2N1C(=O)Cc1ccc(OC)cc1', 'z-score', 1.26),
  ('COc1ccc([Si](C)(C)[C@@H]2[C@@H](CC(=O)N3CCC[C@H]3CO)O[C@]3(C(=O)N(Cc4cccc(N5C(=O)c6cccc7cccc5c67)c4)c4ccccc43)[C@H]2C)cc1', 'z-score', -1.84),
  ('COC(=O)C[C@H]1O[C@]2(C(=O)N(C)c3ccccc32)[C@@H](C)[C@@H]1[Si](C)(C)c1ccccc1', 'z-score', 0.317),
  ('CC[C@@H]1C=C(C(=O)O)[C@H](c2cccc(Cl)c2)N1S(=O)(=O)c1ccc(C)cc1', 'z-score', -0.869),
  ('C[C@]1(C(=O)NCC(F)(F)F)c2ccccc2C(=O)N(Cc2cc(C(F)(F)F)cc(C(F)(F)F)c2)[C@H]1c1ccc(CO)cc1', 'z-score', 1.2);
